Quick reference for OD among some binders
target: soluble 1999 H1 HA (seasonal 1999 H1N1) (Influenza A virus (H1N1, 1999)); test: ELISA, supernate; also: test concentration or dose not given here
parameter: OD

1. mAb 6K14 (antibody, V domains shown) VH: EVQLVESGAEVKKPGASVKVSCKASGYTFTSFDINWVRQAPGQGLEWMGWMTPTSGKTGYAQKFQGRITMTRNTSINTAYMELSSLRSEDTAVYFCARGPERRTTIFDVILDWFDPWGQGTLVTVS VL: DIVMTQSPFSLSLSPGERATLSCRASQSISNYLAWYQQKPGQAPRLLIYDSSNRATGVPARFSGSGSGTDFTLTISSLEPEDFAVYYCQQRSNWMYTFGQGTKVEIKR	0.203 OD
2. mAb 18G6 (antibody, V domains shown) VH: QVQLKESGPGLVKPSETLSLTCTVSGGSISSSNYNWGWIRQPPGKGLEWIGSVYYSGSTYFNPSLKSRVTISVDTSKNQFSLKLTSVTAADTAVYYCARLIAFYYDTNGYTWGQGTLVTVS VL: NSIMTQSPFTLSASVGDKVTITCRASQSISPWLAWYQQKPGKAPKLLIYKASSLETGVPSRFSGSESGTEFTLTISGLQPDDFATYYCQQYSSFARTFGQGTKVEIKR	0.071 OD
3. mAb 25F7 (antibody, V domains shown) VH: EVQLLESGGGLVQPGGSLRLSCAASGFAFSSYGMSWVRQAPGKGLEWVSAFSGSGTSTYYADSVKGRFTISRDKSKNTLYLQMNSLRAEDTAIYYCAKPPGPYIVVAGLFENWGRGTLVTVS VL: QSVLTQPPSVSGAPGQRVTISCTGTSSNIGAGYEVHWYQQLPGTAPKLIINANTNRPSGVPDRFSGSQSGTSASLAITGLRAEDEADYYCQSFDSSLSGWLFGGGTKLTVLG	0.077 OD
